Here, each record is paired with measured Time data.
- System: Mus musculus
- experiment-summary: Anticonvulsant activity in Swiss albino Mus musculus (mouse) assessed as time duration of maximal electric shock-induced tonic extension at 35 mg/kg administered 30 min prior to maximal electric shock-challenge (reference value: 20.66 +/- 0.8433 secs)
- Assay type: functional
The figure you give is taken to be in s; do not add the unit.

Please review the following examples before continuing.
>>> test_result("CCOC(=O)Nc1nc2ccc(C)cc2s1")
0
>>> test_result("CCOC(=O)Nc1nc2ccc(CC)cc2s1")
0
>>> test_result("Cc1cccc2sc(NC(=O)Oc3ccccc3)nc12")
0

Ask | Using the record for CCOC(=O)Nc1nc2ccc(Cl)cc2s1 , state its measured Time.
Reply | 0

Ask | Using the record for COc1ccc2nc(NC(=O)Oc3ccccc3)sc2c1 , state its measured Time.
Reply | 0

Ask | Using the record for CCOC(=O)Nc1nc2ccccc2s1 , state its measured Time.
Reply | 0

Ask | Using the record for CCOC(=O)Nc1nc2ccc(OC)cc2s1 , state its measured Time.
Reply | 0

Ask | Using the record for CCOC(=O)Nc1nc2c(C)cccc2s1 , state its measured Time.
Reply | 0

Ask | Using the record for Cc1ccc2nc(NC(=O)Oc3ccccc3)sc2c1 , state its measured Time.
Reply | 0

Ask | Using the record for O=C(Nc1nc2ccccc2s1)Oc1ccccc1 , state its measured Time.
Reply | 0

Ask | Using the record for O=C(Nc1nc2ccc([N+](=O)[O-])cc2s1)Oc1ccccc1 , state its measured Time.
Reply | 0

Ask | Using the record for O=C(Nc1nc2ccc(Cl)cc2s1)Oc1ccccc1 , state its measured Time.
Reply | 0

Ask | Using the record for CCc1ccc2nc(NC(=O)Oc3ccccc3)sc2c1 , state its measured Time.
Reply | 0

Ask | Using the record for CCOC(=O)Nc1nc2ccc([N+](=O)[O-])cc2s1 , state its measured Time.
Reply | 0
